- System: SF-268 CNS
- experiment description: NCI-60 one-dose screen, 48 h
- test conditions: 10 µM
The panel holds about 83,000 compounds, 20% with a hit somewhere; the sample as a whole holds those more often. The source made the active and inactive calls. How the source made its calls: active means growth percent below 10; inactive means the rest.
Allowed answers: active, inactive

>>> print(df.to_string())
                                   compound  tested_system  assigned_category
0  S=C1SCC(c2ccccc2)S1 (configuration not stated)     SF-268 CNS           inactive

Enquiry: Dear all, I need the recorded test outcome for "O=S(=O)(NCCCNc1nccc(-c2c(-c3ccc(F)cc3)nc3sccn23)n1)c1ccc2ccccc2c1" , thank you.
Return: inactive

Enquiry: How was "NC(=O)c1ccc(-c2cccc3c(=O)nc(N4CCOCC4)oc23)cc1" classified in this test?
Return: inactive

Enquiry: Hi team, can someone confirm the assay call for "Cc1ccc(Nc2cc(C)nc(NCCCNc3ccnc4cc(Cl)ccc34)n2)cc1" ?
Return: active

Enquiry: Assay outcome for CCc1ccc2c(c1)N(CCO)C1=C(C(=O)OC1)C2c1cc(OC)c(OC)c(OC)c1 (configuration not stated) : what was it?
Return: inactive

Enquiry: Tell me the assay call for "CNc1ncc(-c2ccc(C(F)(F)F)cc2)c(NC2CCCCCC2)n1" please.
Return: inactive

Enquiry: Which outcome was assigned to "COc1ccc(-c2nn(-c3cccc(NC(=O)c4ccc(Cl)c(Cl)c4)c3)cc2-c2ccncc2)cc1Cl" in this test?
Return: inactive
